System: A2780 Human Carcinoma Cells
EXPERIMENTAL DETAILS: Glucose displacement assay (ATP measurement, CellTiter-Glo)
Format: cell-based
MEASUREMENT CONTEXT: ATP measurement in A2780 cells, 0.5 μM rotenone, 10 mM glucose, read-out: IC50 [μM] at 10 mM glucose
hey, just use met if measured IC50 is less than 20 µM, otherwise not met

given_smiles=COc1cc(OCc2cccc(OCCCCCC(=O)O)c2)c(Cl)cc1C(=O)O[C@H]1[C@@H](OC)O[C@H](CO)[C@@H](O)[C@@H]1O group_label="not met"
given_smiles=C#CCCCn1c(COc2cc(OC)c(C(=O)N[C@H]3[C@@H](OC)O[C@H](CO)[C@@H](O)[C@@H]3O)cc2Cl)nc2ccccc21 group_label="not met"
given_smiles=COc1cc(OCc2cccc(CNC(=O)CCC(=O)OC(C)(C)C)c2)c(Cl)cc1C(=O)O[C@H]1[C@@H](OC)O[C@H](CO)[C@@H](O)[C@@H]1O group_label=met
given_smiles=CO[C@H]1O[C@H](CO)[C@@H](O)[C@H](O)[C@H]1OC(=O)c1cc(Cl)c(OCc2nc3ccccc3n2Cc2ccccc2Cl)c(Cl)c1 group_label="not met"
given_smiles=C#CCCCn1c(COc2c(Cl)cc(C(=O)N[C@H]3[C@@H](OC)O[C@H](CO)[C@@H](O)[C@@H]3O)c(C)c2Cl)nc2ccccc21 group_label=met
given_smiles=C#CCCCCCn1c(COc2c(Cl)cc(C(=O)O[C@H]3[C@@H](OC)O[C@H](CO)[C@@H](O)[C@@H]3O)c(C)c2Cl)nc2ccccc21 group_label=met
